Tested on: STK35
Conditions: concentration: 1 μM, replicates: in singlicate; n = 1;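 note: KINOMEscan kinase panel screen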
Endpoint Label: %Inh (%)
The reply should be a number in %, with the unit left off.

Problem: Need %Inh, item Nc1nccc2scc(-c3ccc4c(c3)CCN4C(=O)Cc3ccccc3)c12
Solution: 0

Problem: Next: COc1cc(Nc2nccc(N3CCC(NC(=O)C4COc5ccccc5O4)C3)n2)cc(OC)c1OC (centres unmarked)
Solution: 13

Problem: Would you kindly repeat that for Cc1nnc(-c2ccc3ncn(-c4ccc(S(C)=O)cc4)c3c2)o1 (centres unmarked) ?
Solution: 0

Problem: And for Cc1cc(Nc2nc(-c3cccc(C)n3)nc3ccccc23)ccn1 ?
Solution: 3

Problem: Another compound: OCCCNc1nccc(-c2c(-c3cccc(C(F)(F)F)c3)nn3cc(C(F)(F)F)ccc23)n1
Solution: 0

More entries:
Problem: Entry O=c1cc(N2CCOCC2)nc2n(Cc3ccc(F)c(Cl)c3)ccn12 : reported %Inh = ?
Solution: 0

Problem: What would you report for FC(F)(F)c1ccc(-c2ncn(CCCN3CCOCC3)c2-c2ccncc2)cc1 ?
Solution: 0

----------
Test system: ASK2
Construct: gene MAP3K6
Settings: concentration: 1 μM, replicates: in singlicate; n = 1
Listing of entries alongside the reported %Inh.
Field: numeric (%). Do not append units.

Sample records with %Inh:
Problem: State the recorded %Inh for this entry: COc1ccc(-n2cnc3c(N)ncnc32)cc1
Solution: 0

Problem: What would you report for COc1ccc(-c2cc3c(C)nc(N)nc3n([C@H]3CC[C@H](O)CC3)c2=O)cn1 ?
Solution: 0

---
Problem: Returns the measured %Inh for the input molecule. Input: Cc1cccc(-c2cc(-c3c[nH]nc3-c3ccccn3)ccn2)c1
Solution: 0

Problem: Also O=C(NCCNc1ccnc(Nc2ccc(F)cc2)n1)Nc1ccc2c(c1)OCO2 ?
Solution: 0

Problem: Try this molecule next: CCC(=O)c1c(-c2ccccc2)c2cc(Cl)ccc2c(=O)n1Cc1cc(S(C)(=O)=O)n(CC(F)F)n1
Solution: 0

----------
System: CSNK1E
Conditions: concentration: 1 μM, replicates: in singlicate; n = 1
List of %Inh values.
Record the value in %, omitting the unit from your answer.

Problem: Param item = CC(C)(C)c1ccc(C(=O)Nc2cn3cc(-c4ccccc4)ccc3n2)cc1 ; retrieve measured %Inh.
Solution: 28

Continuing:
Problem: Which %Inh reading was recorded for the compound COc1cc(Nc2ccnc3ccc(C(F)(F)F)cc23)cc(OC)c1OC [GW577382] ?
Solution: 9

Problem: Also Nc1ncnc2c1ncn2-c1cccc(F)c1 [SKF-97560] ?
Solution: 0

----------
System: HIPK3
Settings: concentration: 1 μM, replicates: in singlicate; n = 1
%Inh under 10% gets MET, anything at or over 10% gets NOT MET.

As a guide, the following entries are already answered.
Problem: For this compound, is %Inh lower than 10%? CCS(=O)(=O)c1ccc(OC)c(Nc2ncc(-c3ccc(F)cc3)o2)c1.Cl
Solution: NOT MET

Problem: Would you mind doing Nc1n[nH]c2nnc(-c3ccccc3)c(-c3ccccc3)c12 as well?
Solution: NOT MET

Problem: Try the compound FC(F)(F)c1ccc(-c2ncn(CCCN3CCOCC3)c2-c2ccncc2)cc1
Solution: MET

Continuing:
Problem: Determine whether this compound shows %Inh lower than 10% (ties excluded): COc1ccc(CNC(=O)NC2CCN(c3ccnc(Nc4ccc(F)cc4)n3)C2)cc1 (stereo not shown)
Solution: NOT MET

Problem: # repeat for COc1ccc(-c2coc3ccc(-c4nnc(SCc5cccc(C#N)c5)o4)cc23)cc1
Solution: NOT MET

Problem: Record: COc1cc2ncn(-c3cc(OCc4ccncc4)c(C(N)=O)s3)c2cc1OC
Solution: NOT MET

Problem: Here is the next compound: Cc1ccccc1COc1cc(-n2cnc3cc(Cl)ccc32)sc1C(N)=O
Solution: NOT MET

Problem: Next entry: Nc1n[nH]c2ncc(-c3ccccc3)cc12
Solution: NOT MET

Problem: # repeat for COC(=O)c1c(-c2ccccc2)c2cc(Br)ccc2c(=O)n1Cc1ccc(NC(=O)CCC(=O)O)cc1
Solution: MET

Problem: How about this compound: CCn1c(-c2ccoc2)nc2cnccc21
Solution: NOT MET

Problem: Then CCc1ccc(-c2ccc3c(c2)-c2nn(C)cc2S(=O)(=O)N3C)cc1 ?
Solution: MET

Problem: Try the compound CN(C)c1cc(-c2ccc3c(N)n[nH]c3c2)nc(N)n1
Solution: NOT MET

Problem: Same question, COc1cc2ncn(-c3cc(OCCCc4ccccc4)c(C(N)=O)s3)c2cc1OC this time
Solution: MET

Problem: Likewise for COc1cc(Nc2nccc(N3CCC(NC(=O)C(C)c4ccc(Cl)cc4)C3)n2)cc(OC)c1OC (stereo not shown) ?
Solution: MET

Problem: Try this compound next: COc1ccc(Nc2nccc(N3CCC(NS(=O)(=O)c4ccc(NC(C)=O)cc4)C3)n2)cc1 (stereo not shown)
Solution: NOT MET

Problem: Then this compound: OCCCNc1nccc(-c2c(-c3cccc(C(F)(F)F)c3)nn3cc(C(F)(F)F)ccc23)n1
Solution: MET

Problem: Same question for O=C(Nc1n[nH]c2nc(-c3ccccc3)c(Br)cc12)C1CC1 please.
Solution: MET

Problem: Also need Cc1ccc(-c2ccc3c(ccc4sc5c(c43)NC[C@@H](C)N=C5N(C)C)n2)cn1 , thanks.
Solution: MET

Problem: Next up: CN1C(=O)C(Nc2cc(Cl)c(O)c(Cl)c2)=C(c2ccc(Cl)cc2)C1=O
Solution: MET

Problem: What about this compound? CCS(=O)c1ccc(-c2coc3ccc(-c4nnc(C)o4)cc23)cc1 (stereo not shown)
Solution: NOT MET

Problem: Another: Cc1nn2c(=O)cc(N3CCOCC3)nc2n1Cc1cccc(Cl)c1Cl
Solution: NOT MET

----------
System: BMPR1A
Details: concentration: 1 μM, replicates: in singlicate; n = 1
Documented %Inh across a set of compounds
The answer is to be given in %; state only the numeric part.

Solved entries (count: 3):
Problem: Fill in the recorded %Inh for this compound, with BMPR1A as test system: COc1cc(Nc2ccnc3ccc(C(F)(F)F)cc23)cc(OC)c1OC [GW577382]
Solution: 0

Problem: Entry to check: COc1ccc(Nc2nccc(N3CCC(NS(=O)(=O)c4ccc(NC(C)=O)cc4)C3)n2)cc1 (centres unmarked) [GSK1379729]
Solution: 21

Problem: And COc1cc(Nc2nccc(N3CCC(NC(=O)C(C)c4ccc(Cl)cc4)C3)n2)cc(OC)c1OC (centres unmarked) [GSK1379757] ?
Solution: 0

New cases:
Problem: Form: Entry = Nc1nccc2scc(-c3ccc4c(c3)CCN4C(=O)Cc3ccccc3)c12 [GSK2576924] | System = BMPR1A | %Inh = ____
Solution: 0

Problem: Another compound to look at: COC(=O)c1c(-c2ccccc2)c2cc(Br)ccc2c(=O)n1Cc1ccc(S(C)(=O)=O)cc1
Solution: 0

Problem: Field entry: Cc1nnc(-c2ccc3ncn(-c4ccc(S(C)=O)cc4)c3c2)o1 (centres unmarked)
Solution: 19

Problem: What would you report for Cc1cccc(-c2cc(-c3c[nH]nc3-c3ccccn3)ccn2)c1 [GW679395] ?
Solution: 0

----------
Test system: GAK
Settings: concentration: 1 μM, replicates: in singlicate; n = 1
Each item that follows carries a reported %Inh.
Numbers only here, please. The scale is %.

// known answers, use as guide
Problem: Look at this compound and give its reported %Inh. COc1cc2ncn(-c3cc(OCc4ccc(S(C)(=O)=O)cc4)c(C(N)=O)s3)c2cc1OC [GW869979]
Solution: 7

Problem: Another compound to check: Cc1cccc(-c2cc(-c3c[nH]nc3-c3ccccn3)ccn2)c1 [GW679395]
Solution: 82

Problem: Please give the result for O=C(Nc1n[nH]c2nc(-c3ccccc3)c(Br)cc12)C1CC1 [SB-708998] too.
Solution: 11

Problem: Then this compound: Nc1nccc2scc(-c3ccc4c(c3)CCN4C(=O)Cc3ccccc3)c12 [GSK2576924]
Solution: 0

Problem: Likewise for COc1cccc(C2=C(Nc3cccc(C(=O)O)c3)C(=O)NC2=O)c1 [SB-390770] ?
Solution: 21

New cases:
Problem: I have this compound here, CN1C(=O)C(Nc2cc(Cl)c(O)c(Cl)c2)=C(c2ccc(Cl)cc2)C1=O [SB-404321] , and I need its recorded %Inh.
Solution: 0

Problem: Next up: COc1cc(Nc2nccc(N3CCC(NC(=O)C(C)c4ccc(Cl)cc4)C3)n2)cc(OC)c1OC (stereo not shown) [GSK1379757]
Solution: 0

Problem: Subsequent entry: O=C(Nc1ccc2c(c1)OCO2)NC1CCN(c2ccnc(NCc3ccc(F)cc3)n2)CC1 [GSK1379859]
Solution: 4

Problem: Would you kindly repeat that for COc1cc2nccc(Nc3ccc(OCc4ccc(NC(C)=O)cc4)cc3)c2cc1OC.Cl [GW440135] ?
Solution: 7

Problem: Try this compound next: O=c1cc(N2CCOCC2)nc2n(Cc3ccc(F)c(Cl)c3)ccn12 [GSK2297099]
Solution: 1

Problem: Entry to check: Nc1ncnc2c1ncn2-c1ccc(Cl)cc1 [AH2635]
Solution: 7
